These data points were gathered from paper PMC3920459.

# Test system: BT549, breast carcinoma
# measurement.description: IC50 determination for adherent cells using SRB, BT549
# Type: cell-based, human
# recorded.conditions: read-out: IC50 BT549; 48-hour exposure; SRB
Measured pIC50, listed per entry.
Note on pIC50: it is the negative log10 of concentration, concentration in mol/L.

Asked: Reported pIC50 for CO[C@@]12C[C@@H]3[C@@H](NC(=O)c4ccc(Br)n43)[C@@H]1NC(=O)N2C [(−)-5, (−)-agelastatin E] : what is it?
Given back: 5.16

Asked: Again, but for CN1C(=O)N[C@H]2[C@@H]3NC(=O)c4ccc(Br)n4[C@@H]3C[C@]21O [(−)-1, (−)-agelastatin A]
Given back: 6.56

Asked: What would you report for O=C1N[C@H]2[C@@H]3NC(=O)c4ccc(Br)n4[C@@H]3C[C@@]2(O)N1 [(−)-4, (−)-agelastatin D] ?
Given back: 6.20

----------
Property: IC50; scope: individual compounds
# System: HL-60, acute promyelocytic leukemia
# measurement.description: IC50 determination using MTS, HL-60
# Format: cell-based, human
# recorded.conditions: read-out: IC50 HL-60, 48-hour
Numeric only. Scale: nM

- compound: "CO[C@@]12C[C@@H]3[C@@H](NC(=O)c4ccc(Br)n43)[C@@H]1NC(=O)N2C [(−)-5, (−)-agelastatin E]"
  assay.metric: "IC50"
  quantitative.result: 4600
- compound: "CN1C(=O)N[C@H]2[C@@H]3NC(=O)c4ccc(Br)n4[C@@H]3C[C@]21O [(−)-1, (−)-agelastatin A]"
  assay.metric: "IC50"
  quantitative.result: 138

Asked: Entry O=C1N[C@H]2[C@@H]3NC(=O)c4ccc(Br)n4[C@@H]3C[C@@]2(O)N1 [(−)-4, (−)-agelastatin D] has what IC50?
Given back: 540

----------
# Test system: HeLa, cervical carcinoma
# measurement.description: IC50 determination for adherent cells using SRB, HeLa
# Format: cell-based, human
# recorded.conditions: read-out: IC50 HeLa, 48-hour exposure
assay.metric: IC50 (µM)
# unit: µM | format: bare number

As a guide, the following entries are already answered.
- molecule: "CO[C@@]12C[C@@H]3[C@@H](NC(=O)c4ccc(Br)n43)[C@@H]1NC(=O)N2C [(−)-5, (−)-agelastatin E]"
  IC50 [µM]: 8.6
- molecule: "O=C1N[C@H]2[C@@H]3NC(=O)c4ccc(Br)n4[C@@H]3C[C@@]2(O)N1 [(−)-4, (−)-agelastatin D]"
  IC50 [µM]: 1

Okay, next one:
Asked: For HeLa, cervical carcinoma, provide IC50 of CN1C(=O)N[C@H]2[C@@H]3NC(=O)c4ccc(Br)n4[C@@H]3C[C@]21O [(−)-1, (−)-agelastatin A] please.
Given back: 0.708

----------
# System: A549, non-small cell lung carcinoma
# measurement.description: IC50 determination for adherent cells using SRB, A549
# Assay type: cell-based, human
# recorded.conditions: read-out: IC50 A549, 48-hour exposure
pIC50: −log10 of the molar value.
assay.metric: pIC50

Previously resolved entries follow.
- compound: "O=C1N[C@H]2[C@@H]3NC(=O)c4cc(Br)c(Br)n4[C@@H]3C[C@@]2(O)N1 [(−)-6, (−)-agelastatin F]"
  result: "< 5.00"
- compound: "O=C1N[C@H]2[C@@H]3NC(=O)c4ccc(Br)n4[C@@H]3C[C@@]2(O)N1 [(−)-4, (−)-agelastatin D]"
  result: 6.04
- compound: "CN1C(=O)N[C@@]2(O)[C@@H]3NC(=O)c4ccc(Br)n4[C@@H]3C[C@@]12O [(−)-3, (−)-agelastatin C]"
  result: "< 5.00"

Asked: Dear colleague, I am looking for the recorded pIC50 of the following compound: COC1NC(=O)c2ccc(Br)n2C1Cc1c[nH]c(=O)n1C (single isomer, unassigned; (+)) [(+)-39, (+)-O-methyl-pre-agelastatin A]
Given back: < 5.00
